System: Escherichia coli
method notes: Antimicrobial activity against Escherichia coli K-12 3-AG300 harboring AcrB-615-628MexB-N616 mutant gene
Type: functional
assay metric: MIC (µg/mL)
Return type: number; implicit unit µg/mL.

Example cases with answers are listed next.
# chem smiles, unit of measurement, MIC
records = [
    ("O=C(N[C@H](CO)[C@H](O)c1ccc([N+](=O)[O-])cc1)C(Cl)Cl", "µg/mL", 8),
    ("CO[C@@H]1[C@@H](OC(N)=O)[C@@H](O)[C@H](Oc2ccc3c(O)c(NC(=O)c4ccc(O)c(CC=C(C)C)c4)c(=O)oc3c2C)OC1(C)C", "µg/mL", 512),
    ("CC[C@H]1OC(=O)[C@H](C)[C@@H](O[C@H]2C[C@@](C)(OC)[C@@H](O)[C@H](C)O2)[C@H](C)[C@@H](O[C@@H]2O[C@H](C)C[C@H](N(C)C)[C@H]2O)[C@](C)(O)C[C@@H](C)CN(C)[C@H](C)[C@@H](O)[C@]1(C)O", "µg/mL", 64),
]

*Q* Lab request: please report MIC under test system Escherichia coli for "CCBr"
*A* 512

*Q* Now try "CC(=O)NC[C@H]1CN(c2ccc(N3CCOCC3)c(F)c2)C(=O)O1" .
*A* 1020

*Q* Entry to check: "CC[C@H]1OC(=O)[C@H](C)[C@@H](O[C@H]2C[C@@](C)(OC)[C@@H](O)[C@H](C)O2)[C@H](C)[C@@H](O[C@@H]2O[C@H](C)C[C@H](N(C)C)[C@H]2O)[C@](C)(OC)C[C@@H](C)C(=O)[C@H](C)[C@@H](O)[C@]1(C)O"
*A* 512

*Q* Please do the same for "CC[C@H]1OC(=O)[C@H](C)[C@@H](O[C@H]2C[C@@](C)(OC)[C@@H](O)[C@H](C)O2)[C@H](C)[C@@H](O[C@@H]2O[C@H](C)C[C@H](N(C)C)[C@H]2O)[C@](C)(O)C[C@@H](C)C(=O)[C@H](C)[C@@H](O)[C@]1(C)O" as well.
*A* 256

*Q* Next molecule up: "CN(C)c1ccc(O)c2c1C[C@H]1C[C@H]3[C@H](N(C)C)C(O)=C(C(N)=O)C(=O)[C@@]3(O)C(O)=C1C2=O"
*A* 2

*Q* Repeat with "Cc1onc(-c2ccccc2)c1C(=O)N[C@@H]1C(=O)N2[C@@H]1SC(C)(C)[C@@H]2C(=O)O"
*A* 256

Source: ChEMBL document CHEMBL1671642
